EXPERIMENTAL_DETAILS: AUC (0 to infinity) in Wistar rat lung at 500 ug, administered through systemic route under respiratory mode of 30 respirations per minute, 4 ml/kg tidal volume
Assay type: ADME, organism-based
Parameters: dose 500 ug, time infinity
PROPERTY_NAME: AUC(0-inf)
Include the unit after the number when you answer.

// field: AUC(0-inf); key: `CN[C@H](CC(C)C)C(=O)N[C@H]1C(=O)N[C@@H](CC(N)=O)C(=O)N[C@H]2C(=O)N[C@H]3C(=O)N[C@H](C(=O)N[C@H](C(=O)O)c4cc(O)cc(O)c4-c4cc3ccc4O)[C@H](O)c3ccc(c(Cl)c3)Oc3cc2cc(c3O[C@@H]2O[C@H](CO)[C@@H](O)[C@H](O)[C@H]2O[C@H]2C[C@](C)(N)[C@H](O)[C@H](C)O2)Oc2ccc(cc2Cl)[C@H]1O` ; value = 2140 ng·h/mL
